# Target Under Test: Trypsin, Iodination grade, from human pancreas (human, UniProt P07477 24-247)
# Assay: cell-based or functional assay
Bridges are numbered along the chain shown (N, C = ends). [ ]: non-standard residue; d: D form. AlloThr = allo threonine
Recorded Endpoint: % inhibition at 100 µM (%)

[[record]]
binder = "FCTKSDPPXCS (HELM PEPTIDE1{F.C.T.K.S.D.P.P.[Nle].C.S.[dP].P}$PEPTIDE1,PEPTIDE1,2:R3-10:R3|PEPTIDE1,PEPTIDE1,1:R1-13:R2$$$V2.0; SMILES CCCC[C@@H]1NC(=O)[C@@H]2CCCN2C(=O)[C@@H]2CCCN2C(=O)[C@H](CC(=O)O)NC(=O)[C@H](CO)NC(=O)[C@H](CCCCN)NC(=O)[C@H]([C@@H](C)O)NC(=O)[C@@H]2CSSC[C@H](NC1=O)C(=O)N[C@@H](CO)C(=O)N1CCC[C@@H]1C(=O)N1CCC[C@H]1C(=O)N[C@@H](Cc1ccccc1)C(=O)N2) [Example 53]"
recorded_endpoint = "% inhibition at 100 µM"
readout_unit = "%"
obs_value = 95

[[record]]
binder = "cyclo(FCTKSDPPICS[dP]L) (disulfide 2-10) [Example 74]"
recorded_endpoint = "% inhibition at 100 µM"
readout_unit = "%"
obs_value = 86

[[record]]
binder = "cyclo(FCTK[AlloThr]DPPICS[dP]P) (disulfide 2-10) [Example 24]"
recorded_endpoint = "% inhibition at 100 µM"
readout_unit = "%"
obs_value = 97


Data provenance: patent US20140213531A1
